Hello, the source for this data is PubChem BioAssay (NCI), in case you need it.

System: SNB-19 CNS
Measurement description: NCI-60 one-dose screen, 48 h
Assay context: 10 µM unless noted
Experimental: Growth inhibition of the SNB-19 human tumor cell line is measured as a screen for anti-cancer activity. Cells are grown in 96 well plates and exposed to the test compound for 48 hours. Compounds are tested at a single concentration, which is 10^-5 M for most compounds. The reported endpoint is percent growth (GI% or GIPRCNT), where numbers from 0 - 100% represent growth inhibition, and numbers from -100% - 0 represent cell death. For example, a value of 40 represents 60% growth inhibition. […]
Compounds without any hit were thinned out: in the full panel of roughly 83,000, 20% have a hit. Active and inactive are the calls of the source. Rule for the calls: active = growth percent below 10; inactive = the rest.
I would appreciate it if you answered using one of these outcomes: TRUE = active, FALSE = inactive

Some solved cases for reference:
N#CSCc1cc(Cl)c(CSC#N)cc1Cl :: FALSE
CCOC(=O)c1ccc2c(c1)[n+](=O)c(C(C)=O)c(C(F)(F)F)n2[O-] :: FALSE
COc1ccc(NC(=O)c2ccc(NC3=C(c4ccc(Cl)cc4)C(=O)NC3=O)cc2)cc1 :: FALSE
CCN1CCN(CCOc2ccc(CNc3ccc4nc(CCC5CCCCC5)[nH]c4c3)cc2)CC1 :: FALSE
O=C(CSc1nnc(-c2ccc(Cl)c(Cl)c2)n1-c1ccccc1)Nc1ccc(C(=O)/C=C/c2ccc(Cl)cc2)cc1 :: FALSE

Attention now shifts to the item below.
[Q] # fetch the recorded call for C=C(C)[C@@H]1CCC[C@]2(C(=O)OC)CC[C@]3(C)[C@@H](CC[C@@H]4[C@@]5(C)CCCNC(C)(C)[C@@H]5CC[C@]43C)[C@@H]12 here
[A] FALSE

* * *

Measured growth, listed per entry for reference.
System: UACC-62 melanoma
Measurement description: NCI-60 one-dose screen, 48 h (100 = growth as untreated, 0 = no growth, -100 = all killed)
Assay context: 10 µM unless noted
The panel holds about 83,000 compounds, 20% with a hit somewhere; the sample as a whole holds those more often.
Write the answer as a number in %, unit excluded.

// worked examples, growth included
CCOC(=O)c1cnc2sc(-c3ccc(OC)cc3)nc2c1Cl :: 88.7
O=C(Nc1ncc(Cc2ccccc2)s1)c1cc(-c2ccccc2)nc2ccccc12 :: 89.8
[2H]C([2H])([2H])Oc1c(F)cccc1/C=C/C(=O)/C=C(O)/C=C/c1cccc(F)c1OC([2H])([2H])[2H] :: 92

# growth of CC1(C)CC[C@]2(CO)CC[C@]3(C)[C@H](CC[C@@H]4[C@@]5(C)CC[C@H](O)C(C)(C)[C@@H]5CC[C@]43C)[C@H]2[C@H]1O = 90.6

* * *

System: SNB-75 CNS
Measurement description: NCI-60 one-dose screen, 48 h (100 = growth as untreated, 0 = no growth, -100 = all killed)
Assay context: 10 µM unless noted
The panel holds about 83,000 compounds, 20% with a hit somewhere; the sample as a whole holds those more often.
Cut-off 70% on growth: below means true (1), at or above means false (0).

O=C1c2ccccc2-c2c1c1ccncc1c(=O)n2CCCn1ccnc1 :: true (1)
O=C(Oc1ccccc1)c1cc(O)c(O)c(O)c1 :: false (0)
NC(=O)[C@@H]1Cc2ccccc2CN1C(=O)c1ccc2c(c1)Cc1ccccc1-2 :: false (0)

Then this molecule:
[Q] Take the molecule COc1cc(OCc2cccc(-c3ccc4c(c3)OCCO4)c2C)cc(OC)c1C=O and say whether its growth is less than 70%.
[A] false (0)

* * *

System: OVCAR-3 ovarian
Measurement description: NCI-60 one-dose screen, 48 h
Assay context: 10 µM unless noted
Protocol: Growth inhibition of the OVCAR-3 human tumor cell line is measured as a screen for anti-cancer activity. Cells are grown in 96 well plates and exposed to the test compound for 48 hours. Compounds are tested at a single concentration, which is 10^-5 M for most compounds. The reported endpoint is percent growth (GI% or GIPRCNT), where numbers from 0 - 100% represent growth inhibition, and numbers from -100% - 0 represent cell death. For example, a value of 40 represents 60% growth inhibition. […]
About 83,000 compounds went through this panel and 20% of them were active in at least one assay; those are over-represented in the sample as a whole. The source made the active and inactive calls. The calls were made as follows: active = growth percent below 10; inactive = the rest.
Outcome field: choose from Yes = active, No = inactive

# example entries with known answers
O=C(N/N=C/c1ccccc1Cl)c1ccccc1Nc1ccnc(C(F)(F)F)c1 :: Yes
Nc1ncnc2c1N=C(c1ccc([N+](=O)[O-])cc1)CC(c1ccc3c(c1)OCO3)N2 (centres undefined) :: No
CC1=NN(c2cccc(Cl)c2)C(=O)/C1=C\C=C\c1ccccc1 :: No
N#CC1=C(N)Oc2c(ccc3cccnc23)C1c1ccccc1 (centres undefined) :: Yes
Cc1ccc(C(=O)Nc2ccc(CN3CCN(C)CC3)c(C(F)(F)F)c2)cc1C#Cc1cnc(N)c2ccccc12 :: Yes
Cc1ccc(S(=O)(=O)c2nc(-c3ccccc3)oc2S(C)=O)cc1 (centres undefined) :: Yes

[Q] Test call, this molecule: O=C1OCC2=C1C(c1cccc(F)c1)c1cc3c(cc1N2CCO)CCC3 (centres undefined)
[A] Yes

[Q] So what was the verdict on CCCCN(CCC#N)C(N)=O in this test?
[A] No

[Q] So what was the verdict on CC(=O)Oc1ccccc1C(=O)N(Cc1ccc2c(Cl)cc(Cl)c(O)c2n1)c1ccccc1 in this test?
[A] No

[Q] State the result this test recorded for CCCCCCCC/C=C\CCCCCCCCOc1ccc(CC(=O)NCC[N+]2(C)CCCC2)cc1 .
[A] No

[Q] Which result was noted for this molecule in the test: Cc1c2cnccc2c(C)c2c1c1cc(C(=O)O)ccc1n2C
[A] Yes

[Q] Assay result, entry Nc1nc(N)c2c(n1)NC(c1cccc(Nc3ccnc4cc(C(F)(F)F)ccc34)c1)CC(c1ccc(Cl)cc1)=N2 (centres undefined) — outcome?
[A] No

[Q] Field: outcome | Entry: CC(=O)O[C@H]1C[C@@]2(C)[C@@H](C[C@@H](O)[C@H]3[C@@]4(C)CC[C@H](N5CCCC5)[C@@H](C)[C@@H]4CC[C@@]32C)/C1=C(\CCC=C(C)C)C(=O)O
[A] No

[Q] # lookup: test call for COCCNC(=O)Cc1cc(-c2ccc(Cl)cc2)n(-c2ccccc2)c1C
[A] No

[Q] Each molecule tested received a call. Report the one for O=C(OCC(O)C(=O)NC12CC3CC(CC(C3)C1)C2)c1cccc(Br)c1 (centres undefined) .
[A] No

[Q] Please let me know the test result on file for [2H]C([2H])([2H])Oc1ccc(/C=C/C(=O)/C=C(/C=C/c2ccc(OC([2H])([2H])[2H])c(OC([2H])([2H])[2H])c2OC([2H])([2H])[2H])OB(F)F)c(OC([2H])([2H])[2H])c1OC([2H])([2H])[2H] .
[A] No

[Q] So what was the verdict on CNC1=C([N+](=O)[O-])C(c2ccc(OC)cc2)C(C#N)=C(c2ccc[nH]2)O1 (centres undefined) in this test?
[A] No

[Q] I'd appreciate the recorded outcome for Cn1ccnc1C(=O)/C=C/c1ccc(CC(=O)Nc2cc(F)c(F)c(F)c2)cc1 from this test.
[A] Yes

[Q] Which outcome was entered for the molecule COC(CCP(=O)(c1ccccc1)c1ccccc1)(C(=O)c1ccccc1)c1ccccc1 (centres undefined) in this test?
[A] No

[Q] # fetch the recorded call for COc1ccc(S(=O)(=O)NC2c3ccccc3CC2O)cc1OC (centres undefined) here
[A] No

* * *

Listed here are compounds together with their documented growth.
Tested on: A549/ATCC NSCLC
Measurement description: NCI-60 one-dose screen, 48 h (100 = growth as untreated, 0 = no growth, -100 = all killed)
Assay context: 10 µM unless noted
This is part of a sample that, as a whole, favours compounds with a hit. Of some 83,000 tested, about 20% had one in any assay.
State the answer as a number, implicitly in %.

O=C1/C(=C/c2cccc(Br)c2)COc2ccc(O)c(O)c21 :: 11.2
C#CCOc1cccc(Nc2c(Cl)c(CCl)nc3ccc(Oc4ccccc4)cc23)c1 :: 90.7
O=C(Nc1ccccc1C(F)(F)F)C1=NCCCCN1 :: 102
Nc1n[nH]c2cccc(C#Cc3cccc(C(=O)Nc4ccc(Cl)c(C(F)(F)F)c4)c3)c12 :: 71.3

// moving on: another record for growth
GET /value?item= OC1CSSC1Cn1cnc2c(Nc3ccc(F)c(Cl)c3)ncnc21 (stereo unspecified) &field=growth returns 77.5

* * *

Test system: M14 melanoma
Measurement description: NCI-60 one-dose screen, 48 h (100 = growth as untreated, 0 = no growth, -100 = all killed)
Assay context: 10 µM unless noted
The panel holds about 83,000 compounds, 20% with a hit somewhere; the sample as a whole holds those more often.
Metric: growth (%)
Numeric answer only, unit % assumed.

Lab note: CCOC(=O)c1c(C)n2c(=O)cc(C)c3c(OC(C)=O)c(OC(C)=O)cc1c32 gave growth of 83.2

# growth of CCCCC1=C(Br)C(=O)c2ncccc2C1=O = 98.2

C/C(=C(\c1ccc(OCCCN(C)C)cc1)c1ccc(OC(=O)Cc2ccccc2)cc1)c1ccc(Cl)cc1 has a reported growth of 7.02

In plain terms, CCCN1C(=O)N(CCC)C2C1NC(=S)N2/N=C/C=C/c1ccccc1OC (configuration not stated) has a documented growth of -0.388

According to the records, this molecule COc1cc2c(cc1-c1c(C)noc1C)ncc1nc(C3CCOCC3)n(C3CCC(OC(F)F)CC3)c12 (configuration not stated) displays growth of 54.6

According to the records, this molecule COc1cc(OCc2cccc(-c3ccccc3)c2C)cc(OC)c1CN1CCCCC1C(=O)NCCOCCOCCN (configuration not stated) displays growth of -27.5

get_value(item= CCN1CCN(c2nc(NNC(=O)c3ccc(OC)cc3)nc(N3CCN(C(c4ccccc4)c4ccccc4)CC3)n2)CC1 , readout=growth) returns -40.5
